# Tested on: MEF A1-2A-BIM cells, caspase 3/7 luminescence, 3 h
# assay-overview: inducers of caspase signal in A1-dependent MEFs – cell-based, luminescence, retest, A1 inhibitor project, dose response (AID 2765)
Activity calls are given as the source filed them.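 Rule for the calls: active = half-maximal concentration for the rise in caspase light signal at or below ten times the top tested dose; inconclusive = flat fit between 30% and 70% activity, or unreliable curve fit; inactive = the rest.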
EC50 values, listed per item

INSERT INTO measurements (compound, measured_on, obs_value) VALUES
  ('COc1ccc(OC[C@@H](O)CNC(=O)c2cccc3c2C(=O)c2ccc(-c4ccc(F)cc4OCc4ccccc4)cc2S3(=O)=O)cc1', 'MEF A1-2A-BIM cells, caspase 3/7 luminescence, 3 h', '> 35 µM (inactive)'),
  ('Cc1c(Cl)cccc1NC(=O)[C@@]1(CC(=O)O)CC(/C=C/c2ccccc2)=NO1', 'MEF A1-2A-BIM cells, caspase 3/7 luminescence, 3 h', '> 35 µM (inactive)'),
  ('CC1=NNC(=O)/C1=C\c1cn(-c2ccccc2)nc1-c1cccs1', 'MEF A1-2A-BIM cells, caspase 3/7 luminescence, 3 h', '15.1 µM'),
  ('CC1(C)CC(=O)c2cc3c(N)c(C(=O)NCc4ccccc4)sc3nc2C1', 'MEF A1-2A-BIM cells, caspase 3/7 luminescence, 3 h', '> 35 µM (inactive)'),
  ('CCc1ccc(Nc2n[n+](-c3ccccc3)c(/C=C/c3ccccc3)s2)cc1', 'MEF A1-2A-BIM cells, caspase 3/7 luminescence, 3 h', '10.9 µM'),
  ('CCOC(=O)c1cc(CC)sc1NC(=O)C1CC(=O)NN1Cc1ccccc1 (stereo not given)', 'MEF A1-2A-BIM cells, caspase 3/7 luminescence, 3 h', '> 35 µM (inactive)');

API: value(readout= EC50, system= MEF A1-2A-BIM cells, caspase 3/7 luminescence, 3 h, query= CC(C)C(OC(=O)c1cc2c(s1)CCCCC2)C(=O)NC(N)=O (stereo not given) )
> 35 µM (inactive)

How about COc1ccc2c(c1)[nH]c1c(=O)n(/N=C/C3C(C)C=C(C)CC3C)c(=O)[nH]c12 (stereo not given) ?
> 35 µM (inactive)

How about Clc1ccc(C2=CC(c3ccco3)n3ncnc3N2)cc1 (stereo not given) ?
> 35 µM (inactive)

How about "C[N+](C)(C)CCNC(=O)c1cc[n+](Cc2ccccc2)c(/C=N/O)c1" ?
> 35 µM (inactive)

---

# Tested on: MEF A1-2A-BIM cells, caspase 3/7 luminescence, 3 h
# assay-overview: inducers of caspase signal in A1-dependent MEFs – cell-based, luminescence, retest, A1 inhibitor project, dose response (AID 2765)
The source made the active and inactive calls.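 How the source made its calls: active means half-maximal concentration for the rise in caspase light signal at or below ten times the top tested dose; inconclusive means flat fit between 30% and 70% activity, or unreliable curve fit; inactive means the rest.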
Answer with one of the outcomes Yes = active, No = inactive

Recorded results for 8 molecules are shown here.
INSERT INTO measurements (molecule, group) VALUES
  ('O=C1C=CC(=O)N1c1cccc(-c2ccccc2)c1', 'No'),
  ('COC(=O)Cc1csc(/N=C/c2c(O)n(-c3cccc(C(F)(F)F)c3)c(=O)c3ccccc23)n1', 'Yes'),
  ('Cc1ccc(C)c(NC(=S)NC(NC(=O)Cc2cccc3ccccc23)C(Cl)(Cl)Cl)c1 (stereo not given)', 'Yes'),
  ('O=C(Cc1cccc([N+](=O)[O-])c1)Nc1cccc(C(=O)N2CCOCC2)c1', 'No'),
  ('CS(=O)(=O)Nc1ccc(C2=NN(C(=O)c3cccc(F)c3)C(c3cccs3)C2)cc1 (stereo not given)', 'No'),
  ('COc1ccccc1NC(=O)c1ccc(S(=O)(=O)N2CCCC2)cc1', 'No'),
  ('Cc1cc(C2C(C#N)=C(N)SC(N)=C2C#N)c(C)s1', 'No'),
  ('O=C(CNC(=O)c1ccc(Br)cc1)NC1CC1', 'No');

// outcome(item) with item = "O=C(C1=C[C@H](c2coc3ccccc3c2=O)C[C@H](OCc2ccc(CO)cc2)O1)N1CCN(Cc2ccccc2)CC1"
No

How about "Cc1noc(C)c1CSCC(=O)N(C)CC(=O)Nc1ccc(Cl)c(Cl)c1" ?
No

---

# Tested on: MEF A1-2A-BIM cells, caspase 3/7 luminescence, 3 h
# assay-overview: inducers of caspase signal in A1-dependent MEFs – cell-based, luminescence, retest, A1 inhibitor project, dose response (AID 2765)
The source made the active and inactive calls.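 The calls were made as follows: active = half-maximal concentration for the rise in caspase light signal at or below ten times the top tested dose; inconclusive = flat fit between 30% and 70% activity, or unreliable curve fit; inactive = the rest.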
Answer with one of the outcomes y (active), n (inactive)

Recorded results for 5 compounds are shown here.
INSERT INTO results (compound, group) VALUES
  ('CCOC(=O)c1[nH]c2ccccc2c1NC(=S)Nc1cc(C)ccc1C', 'n'),
  ('CCN(CC)CCCN=C(C)c1c(O)n(-c2ccccc2)c(=O)[nH]c1=O', 'n'),
  ('CCOc1ccc(OCC(=O)N(CCC2=CCCCC2)c2c(N)n(Cc3ccccc3)c(=O)[nH]c2=O)cc1', 'y'),
  ('CC(=O)Nc1ccc(SC[C@H](Cc2ccccc2)N2CC[C@@H](C(C)(C)C)CCC2=O)cc1', 'n'),
  ('O=C(O)c1cn(-c2ccccc2)c(=O)c2ccccc12', 'n');

// outcome(item) with item = "O=[N+]([O-])c1ccc(CN2CCOCCOCCOCC2)cc1"
n

How about "O=[N+]([O-])c1ccc(S(=O)(=O)N/N=C/c2ccsc2)cc1" ?
n

How about "COc1ccc(OC)c(/C=C/C(=O)N(C)CC(=O)Nc2cc(C)ccc2C)c1" ?
n

How about "CCc1nnc(NC(=O)c2ccc(NC(=O)C(C)C)cc2)s1" ?
n

How about O=C(Nc1ccc([N+](=O)[O-])cc1)C(Cc1ccccc1)N1C(=O)c2cccc3cccc(c23)C1=O (stereo unspecified) ?
n

How about "CC(C)N=c1scc(-c2ccco2)n1/N=C/c1ccc(O)c(O)c1" ?
n

---

# Test system: MEF A1-2A-BIM cells, caspase 3/7 luminescence, 3 h
# assay-overview: inducers of caspase signal in A1-dependent MEFs – cell-based, luminescence, retest, A1 inhibitor project, dose response (AID 2765)
Calls of active or inactive are those of the source.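 How the source made its calls: active means half-maximal concentration for the rise in caspase light signal at or below ten times the top tested dose; inconclusive means flat fit between 30% and 70% activity, or unreliable curve fit; inactive means the rest.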
Answer with one of the outcomes active, inactive

Recorded results for 4 compounds are shown here.
INSERT INTO results (compound, group) VALUES
  ('CCS(=O)(=O)c1ncc(Cl)c(C(=O)Nc2ccc(C)cc2)n1', 'inactive'),
  ('O=C(Nc1ccc(N2CCN(C(=O)c3ccco3)CC2)cc1)c1cccs1', 'inactive'),
  ('Cn1nc(-c2ccc(OCC(=O)NCC3CCCO3)cc2)c2ccccc2c1=O (stereo not given)', 'inactive'),
  ('CN(C)CCCN(C(=O)c1ccc([N+](=O)[O-])s1)c1nc2cc3c(cc2s1)OCCO3', 'inactive');

Turning now to a further record.
// outcome(item) with item = "CN(C)CCN(C(=O)/C=C/c1cccs1)c1nc2c(F)cc(F)cc2s1"
active

---

# System: MEF A1-2A-BIM cells, caspase 3/7 luminescence, 3 h
# assay-overview: inducers of caspase signal in A1-dependent MEFs – cell-based, luminescence, retest, A1 inhibitor project, dose response (AID 2765)
Active and inactive are the calls of the source.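 Rule for the calls: active = half-maximal concentration for the rise in caspase light signal at or below ten times the top tested dose; inconclusive = flat fit between 30% and 70% activity, or unreliable curve fit; inactive = the rest.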
Answer with one of the outcomes true (1) (active), false (0) (inactive)

INSERT INTO results (molecule, group) VALUES
  ('CCN(CC)CCCNC(=S)N1CCC(c2nc3ccccc3[nH]2)CC1', 'false (0)');

// outcome(item) with item = "CC(=O)N1CCN(C(=S)c2ccc([N+](=O)[O-])cc2)CC1"
false (0)

How about "CCn1c(Cl)c(C=O)s/c1=N\S(=O)(=O)c1ccccc1" ?
false (0)

How about "CCCCCCC(=O)Nc1cc2c(C)cc(=O)oc2cc1C" ?
false (0)

How about "CC(C)c1cccc(-c2ccc3c(c2)S(=O)(=O)c2cccc(C(=O)NC4CCCC4)c2C3=O)c1" ?
false (0)

How about "Cc1[nH]n(-c2cccc(Cl)c2)c(=O)c1C=NC12CN3CN(CN(C3)C1)C2" ?
false (0)

How about "O=C(c1ccccc1Br)N(Cc1ccccc1)c1ccccc1" ?
false (0)

How about "COC(=O)c1ccc(NC(=O)CCN2CCN(c3ccccc3)CC2)cc1" ?
false (0)

---

# System: MEF A1-2A-BIM cells, caspase 3/7 luminescence, 3 h
# assay-overview: inducers of caspase signal in A1-dependent MEFs – cell-based, luminescence, retest, A1 inhibitor project, dose response (AID 2765)
Active and inactive are the calls of the source.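 The calls were made as follows: active = half-maximal concentration for the rise in caspase light signal at or below ten times the top tested dose; inconclusive = flat fit between 30% and 70% activity, or unreliable curve fit; inactive = the rest.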
Answer with one of the outcomes active, inactive

// outcome(item) with item = "CCOC(=O)COc1ccc(S(=O)(=O)N2CCN(c3ccc(OC)cc3)CC2)cc1"
inactive

How about Cc1ccc(-n2nc3c(=O)n(C(C)C(=O)NCc4ccccc4Cl)nc(C)c3c2C)cc1 (centres undefined) ?
inactive

How about "Cc1cccc(/C=N/NC(=O)c2cc3c(s2)-c2ccccc2CC3)c1" ?
inactive

How about "COC(=O)Cn1cc(C(=O)C2CC2)c2ccccc21" ?
inactive

How about "COc1ccccc1C(=O)Nc1ccnn1C1CCN(Cc2cn(C)c3ccccc23)CC1" ?
inactive
